- System: Micrococcus luteus
- MEASUREMENT PROTOCOL: Antibacterial activity against Micrococcus luteus ATCC 4698 after 24 hrs by two-fold serial dilution assay
- Format: functional, NCTC 2665
Below, each entry is listed with its recorded MIC.
// units = µM; emit number, no label

Look over these answered cases.
[
  {
    "COMPOUND": "COc1cc(-c2nc3ccccc3n2Cc2cccc(F)c2)c2c(c1O)CN1CCc3cc4c(cc3C1C2)OCO4.Cl (centres undefined)",
    "VAL": 70.8
  },
  {
    "COMPOUND": "COc1cc(-c2nc3ccccc3n2Cc2cccc(F)c2)c2c(c1O)CN1CCc3cc4c(cc3C1C2)OCO4 (centres undefined)",
    "VAL": 19.4
  },
  {
    "COMPOUND": "COc1cc(-c2nc3ccccc3n2Cc2ccc(F)cc2)c2c(c1O)CN1CCc3cc4c(cc3C1C2)OCO4 (centres undefined)",
    "VAL": 40.1
  }
]

May I ask what MIC has been recorded for COc1cc(-c2nc3ccccc3n2Cc2ccccc2F)c2c(c1O)CN1CCc3cc4c(cc3C1C2)OCO4.Cl (centres undefined) ?
20.9

---

Listed below: MIC values for each entry.
- Test system: Pichia norvegensis
- MEASUREMENT PROTOCOL: Antifungal activity against Candida mycoderma after 24 hrs by two-fold serial dilution assay
- Type: functional
# value in µM; strip the unit string

Study these solved cases before continuing.
[
  {
    "MOLECULE": "COc1cc(-c2nc3ccccc3n2CCCCCCn2c3ccccc3c3ccccc32)c2c(c1O)CN1CCc3cc4c(cc3C1C2)OCO4.Cl (configuration not stated)",
    "UNIT OF MEASUREMENT": "µM",
    "MIC": 352
  },
  {
    "MOLECULE": "COc1cc(-c2nc3ccccc3n2Cc2ccccc2F)c2c(c1O)CN1CCc3cc4c(cc3C1C2)OCO4.Cl (configuration not stated)",
    "UNIT OF MEASUREMENT": "µM",
    "MIC": 10.5
  },
  {
    "MOLECULE": "COc1cc(-c2nc3ccccc3n2Cc2cccc(F)c2)c2c(c1O)CN1CCc3cc4c(cc3C1C2)OCO4.Cl (configuration not stated)",
    "UNIT OF MEASUREMENT": "µM",
    "MIC": 70.8
  },
  {
    "MOLECULE": "COc1cc(-c2nc3ccccc3n2Cc2ccc(F)cc2)c2c(c1O)CN1CCc3cc4c(cc3C1C2)OCO4.Cl (configuration not stated)",
    "UNIT OF MEASUREMENT": "µM",
    "MIC": 218.4
  },
  {
    "MOLECULE": "COc1cc(-c2nc3ccccc3n2Cc2ccc(F)cc2)c2c(c1O)CN1CCc3cc4c(cc3C1C2)OCO4 (configuration not stated)",
    "UNIT OF MEASUREMENT": "µM",
    "MIC": 25.1
  },
  {
    "MOLECULE": "COc1cc(-c2nc3ccccc3n2Cc2ccc(Cl)cc2)c2c(c1O)CN1CCc3cc4c(cc3C1C2)OCO4.Cl (configuration not stated)",
    "UNIT OF MEASUREMENT": "µM",
    "MIC": 267.9
  }
]

Let's switch to this molecule now.
Please report the recorded MIC for COc1cc(-c2nc3ccccc3n2Cc2ccc(Cl)cc2)c2c(c1O)CN1CCc3cc4c(cc3C1C2)OCO4 (configuration not stated) .
14.1

---

- Tested on: Escherichia coli
- MEASUREMENT PROTOCOL: Antibacterial activity against Escherichia coli JM109 after 24 hrs by two-fold serial dilution assay
- Type: functional
- STUDY CONDITIONS: Escherichia coli, JM109, 24 h; read-out: MIC
// map MIC to label using category 1: < 40 µM; category 2: ≥ 40 µM and < 100 µM; category 3: ≥ 100 µM

[
  {
    "COMPOUND": "COc1cc(C=O)c2c(c1O)CN1CCc3cc4c(cc3C1C2)OCO4 (centres undefined)",
    "DISCRETE LABEL": "category 3"
  }
]

Band for O=C(N[C@H](CO)[C@H](O)c1ccc([N+](=O)[O-])cc1)C(Cl)Cl ?
category 2

Classify this compound: CCn1cc(C(=O)O)c(=O)c2cc(F)c(N3CCNCC3)cc21
category 2

Determine which band this compound sits in: COc1ccc(Cn2c(-c3cc(OC)c(O)c4c3CC3c5cc6c(cc5CCN3C4)OCO6)nc3ccccc32)cc1 (centres undefined)
category 1

Determine which band this compound sits in: COc1ccc2cc3[n+](cc2c1OC)CCc1cc2c(cc1-3)OCO2
category 3

Consider CCCn1c(-c2cc(OC)c(O)c3c2CC2c4cc5c(cc4CCN2C3)OCO5)nc2ccccc21 (centres undefined) . To which MIC class does it belong?
category 3

Where would COc1cc(-c2nc3ccccc3n2Cc2ccc(Cl)c(Cl)c2)c2c(c1O)CN1CCc3cc4c(cc3C1C2)OCO4 (centres undefined) land among the classes by reported MIC?
category 2

For this compound, which bin applies? CCCCCCCCCCCCn1c(-c2cc(OC)c(O)c3c2CC2c4cc5c(cc4CCN2C3)OCO5)nc2ccccc21 (centres undefined)
category 1

Hi there! Could you help me figure out the category for CCCCCCCCn1c(-c2cc(OC)c(O)c3c2CC2c4cc5c(cc4CCN2C3)OCO5)nc2ccccc21 (centres undefined) please?
category 3

---

- System: Candida albicans
- MEASUREMENT PROTOCOL: Antifungal activity against Candida albicans ATCC 76615 after 24 hrs by two-fold serial dilution assay
- Assay type: functional
EXPERIMENTAL READOUT: MIC (µM)
# unit: µM | format: bare number

Look over these answered cases.
[
  {
    "COMPOUND": "COc1cc(-c2nc3ccccc3n2Cc2cccc(F)c2)c2c(c1O)CN1CCc3cc4c(cc3C1C2)OCO4.Cl (configuration not stated)",
    "TARGET SYSTEM": "Candida albicans",
    "UNIT OF MEASUREMENT": "µM",
    "VAL": 70.8
  },
  {
    "COMPOUND": "COc1cc(-c2nc3ccccc3n2Cc2ccccc2F)c2c(c1O)CN1CCc3cc4c(cc3C1C2)OCO4.Cl (configuration not stated)",
    "TARGET SYSTEM": "Candida albicans",
    "UNIT OF MEASUREMENT": "µM",
    "VAL": 20.9
  },
  {
    "COMPOUND": "COc1cc(-c2nc3ccccc3n2CCCCCCn2c3ccccc3c3ccccc32)c2c(c1O)CN1CCc3cc4c(cc3C1C2)OCO4.Cl (configuration not stated)",
    "TARGET SYSTEM": "Candida albicans",
    "UNIT OF MEASUREMENT": "µM",
    "VAL": 176
  },
  {
    "COMPOUND": "COc1cc(-c2nc3ccccc3n2Cc2ccc(F)cc2)c2c(c1O)CN1CCc3cc4c(cc3C1C2)OCO4.Cl (configuration not stated)",
    "TARGET SYSTEM": "Candida albicans",
    "UNIT OF MEASUREMENT": "µM",
    "VAL": 182
  }
]

# get_value(readout= MIC, system= Candida albicans) for COc1cc(-c2nc3ccccc3n2Cc2ccc(Cl)cc2)c2c(c1O)CN1CCc3cc4c(cc3C1C2)OCO4 (configuration not stated)
23.6

Which measured MIC belongs to COc1cc(-c2nc3ccccc3n2Cc2ccc(F)cc2)c2c(c1O)CN1CCc3cc4c(cc3C1C2)OCO4 (configuration not stated) , tested on Candida albicans?
25.1

Param readout = MIC; param system = Candida albicans; param query = COc1cc(-c2nc3ccccc3n2Cc2ccc(Cl)cc2)c2c(c1O)CN1CCc3cc4c(cc3C1C2)OCO4.Cl (configuration not stated) ; response: value
401.9

---

Overview of reported MIC across a group of compounds:
- System: Salmonella typhi
- MEASUREMENT PROTOCOL: Antibacterial activity against Bacillus typhi after 24 hrs by two-fold serial dilution assay
- Assay type: functional, Salmonella enterica subsp. enterica serovar Typhi
Respond numerically; units are µM and should not be typed.

[
  {
    "COMPOUND": "COc1cc(-c2nc3ccccc3n2Cc2ccc(Cl)cc2)c2c(c1O)CN1CCc3cc4c(cc3C1C2)OCO4 (centres undefined)",
    "MIC / µM": 9.4
  },
  {
    "COMPOUND": "COc1cc(-c2nc3ccccc3n2CCCCCCn2c3ccccc3c3ccccc32)c2c(c1O)CN1CCc3cc4c(cc3C1C2)OCO4.Cl (centres undefined)",
    "MIC / µM": 73.3
  },
  {
    "COMPOUND": "COc1cc(-c2nc3ccccc3n2Cc2ccc(Cl)cc2)c2c(c1O)CN1CCc3cc4c(cc3C1C2)OCO4.Cl (centres undefined)",
    "MIC / µM": 201
  }
]

--- query ---
State the recorded MIC for this entry: COc1cc(-c2nc3ccccc3n2Cc2ccccc2F)c2c(c1O)CN1CCc3cc4c(cc3C1C2)OCO4.Cl (centres undefined)
6.3
